Exercise: for every item that follows, state its recorded Kd.
biological target: CXCL3 (human, UniProt P19876 35-107); assay: BLI
Answers are plain numbers, in µM.

binder="P1104 (natural protein, also: glycosylated) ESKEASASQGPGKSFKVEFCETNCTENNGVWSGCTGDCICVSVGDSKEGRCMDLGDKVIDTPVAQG" assay_result=0.0437

Count: 4. Required value per item: Kd.
1. P1090_IXORI (natural protein) GSKELSGPESSENSIEAAFCDTNCTEGTDGVWSGCSAGCFCVHVGNSTVGRCMTFNGVD
2. P1100_IXORI (natural protein) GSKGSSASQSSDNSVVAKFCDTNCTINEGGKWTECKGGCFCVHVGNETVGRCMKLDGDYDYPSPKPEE
3. P1078_IXORI (natural protein) GSKGSSAQQSSHDSIKAEFCETNCTMKTGGKWTQCHGGCFCVHVGNETVGRCIKLDGDYDYPSSKHEE
4. P1080_IXORI (natural protein) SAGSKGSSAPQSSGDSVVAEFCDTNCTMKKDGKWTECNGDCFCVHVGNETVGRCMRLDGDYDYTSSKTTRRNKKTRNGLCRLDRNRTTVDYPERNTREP

0.00767
0.0559
0.0438
0.124
